- assay.target: pooled human IgG
In this section we review reported Enzyme Activity Endpoint Assay (purified): Fab'2 values for a set of proteins.
A number alone suffices; assume ng/µL.

Worked examples, 3 proteins total:
protein	val
PRT-142 (protein) MRNATEAYAKEVPHQITSVWTKGVTPLTPEQFRYNNEDVFHAPYLAHQGWYDITKAFDGKDNLLCGAATAGNMLHWWFDQNKTEIEAYLSKHPEKQKIIFNNQELFDLKAAIDTKDSQTNSQLFNYFRDKAFPNLSARQLGVMPDLVLDMFINGYYLNVFKTQSTDVNRPYQDKDKRGGIFDAVFTRGDQTTLLTARHDLKNKGLNDISTIIKQELTEGRALALSHTYANVSISHVINLWGADFNAEGNLEAIYVTDSDANASIGMKKYFVGINAHGHVAISAKKIEGENIGAQVLGLFTLSSGKDIWQKLS	589
PRT-124 (protein) MRNATEAYAKEVPHQITSVWTKGVTPLTPEQFRYNNEDVIHAPYLAHQGWYDITKTFDGKDNLLCGAATAGNMLHWWFDQNKTEIEAYLSKHPEKQKIIFNNQELFDLKAAIDTKDSQTNSQLFNYFRDKAFPNLSARQLGVMPDLVLDMFINGYYLNVFKTQSTDVNRPYQDKDKRGGIFDAVFTRGDQTTLLTARHDLKNKGLNDISTIIKQELTEGKALALSHTYANVSISHVINLWGADFNAEGNLEAIYVTDSDANASIGMKKYFVGVNAHGKVAISAKKIEGENIGAQVLGLFTLSSGKDIWQKLS	676
PRT-146 (protein) MANQEIRYSEVTPYHIKTVWTKGVTPPANFTQGEDVFHAPYVANQGWYDITKTFNGKDDLLCGAATAGNMLHWWFDQNKDQIKRYLEEHPEKQKINFNGEQMFDVKEAIDTKNHQLDSKLFEYFKEKAFPYLSTKHLGVFPDHVIDMFINGYRLSLTNHGPTPVKEGSKDPRGGIFDAVFTRGDQSKLLTSRHDFKEKTLNDISQLIKQELQSGKALGLSHTYANVRINHVINLWGADFDAEGNLEAIYVTDSDSNASIGMKKYFVGKNSAGKVAISAKEIKEDNIGAQVLGLFTLSTGQDSWNQTN	672

The record that follows has no Enzyme Activity Endpoint Assay (purified): Fab'2 shown yet.
Req: Find the recorded Enzyme Activity Endpoint Assay (purified): Fab'2 belonging to PRT-159 (protein) MANQEIRYSEVTPYHVTSVWTKGVTPPTDFIKGEDVFHAPYKAGQGWYDITKTFNGKDDLLCGAATAGNMLHWWFDQNKDQIKRYLEEHPEKQKINFNGEQMFDVKEAIDTKNHQLDSKLFEYFKEKAFPYLSTKHLGVFPDHVIDMFINGYRLSLTNHGPTPVKEGSKDPRGGIFDAVFTRGDQSKLLTSRHDFKEKNLKEISDLIKKELQEGKALGLSHTYANVRINHVINLWGADFDSNGNLKAIYVTDSDSNASIGMKKYFVGVNSAGKVAISAKEIKEDNIGAQVLGLFTLSTGQDSWNQTN and report it.
Resp: 637

# credit: patent US20250027068
